settings: human gut metagenome, 24 h, 2 µM; note: call rule not given here
test.readout: Bacterial Biotransformation

| compound | test.readout | data.value |
| --- | --- | --- |
| N=C(N)NC(=O)Cc1c(Cl)cccc1Cl | Bacterial Biotransformation | Compound NOT metabolized |
| CC(=O)CCCCn1c(=O)c2c(ncn2C)n(C)c1=O | Bacterial Biotransformation | Compound NOT metabolized |
| CC(=O)Nc1ccc(OC(C)=O)cc1 [DIACETAMATE] | Bacterial Biotransformation | Compound metabolized |
| CCN(C(C)=O)c1cccc(-c2ccnc3c(C#N)cnn23)c1 | Bacterial Biotransformation | Compound metabolized |
| COCCCC/C(=N\OCCN)c1ccc(C(F)(F)F)cc1.O=C(O)/C=C\C(=O)O [FLUVOXAMINE MALEATE] | Bacterial Biotransformation | Compound metabolized |

# Bacterial Biotransformation (compound: `CN(C/C=C/C#CC(C)(C)C)Cc1cccc2ccccc12` ) is Compound NOT metabolized

# Bacterial Biotransformation (compound: `CCN(CC)CCOC(=O)C1(C2CCCCC2)CCCCC1` ) is Compound NOT metabolized

# Bacterial Biotransformation (compound: CCCN1C[C@H](CSC)C[C@@H]2c3cccc4[nH]cc(c34)C[C@H]21.CS(=O)(=O)O [PERGOLIDE MESYLATE] ) is Compound NOT metabolized

# Bacterial Biotransformation (compound: CC(C)[C@H]1CC[C@H](C(=O)N[C@H](Cc2ccccc2)C(=O)O)CC1 [NATEGLINIDE] ) is Compound metabolized

###

experiment: The drug is tested on Z-016 corresponding to mouse gut metagenome with ENA study accession number: PRJEB37062 and ENA sample accession number: ERS12561815 for biotransformation under anaerobic condition. The drug concentrations were measured over 9 timepoints collected between 0 and 24 hours of incubation by liquid-chromatography-coupled mass spectrometry (LC–MS); details: 2 µM

| molecule | Bacterial Biotransformation |
| --- | --- |
| CC1=C(CC(=O)O)c2cc(F)ccc2/C1=C\c1ccc([S+](C)[O-])cc1 (centres undefined) | Compound NOT metabolized |
| O=C1CC2(CCCC2)CC(=O)N1CCCCN1CCN(c2ncccn2)CC1 | Compound NOT metabolized |
| CCOC(=O)[C@H](CCc1ccccc1)N[C@@H](C)C(=O)N1Cc2ccccc2C[C@H]1C(=O)O | Compound NOT metabolized |

###

conditions: human gut metagenome, 24 h, 2 µM
test.readout: Bacterial Biotransformation

Worked examples, 6 compounds total:
| compound | data.value |
| --- | --- |
| c1ccc2[nH]c(-c3cscn3)nc2c1 [THIABENDAZOLE] | Compound NOT metabolized |
| COc1ccc(/C=C/C(=O)Nc2ccccc2C(=O)O)cc1OC | Compound NOT metabolized |
| CCCCCNC(=N)N/N=C/c1c[nH]c2ccc(OC)cc12.O=C(O)/C=C\C(=O)O [TEGASEROD MALEATE] | Compound NOT metabolized |
| CC(=O)Nc1ccc(OC(C)=O)cc1 [DIACETAMATE] | Compound metabolized |
| COc1ccccc1OCCNCC(O)COc1cccc2[nH]c3ccccc3c12 (configuration not stated) [CARVEDILOL] | Compound NOT metabolized |
| CN(CCOc1ccc(CC2SC(=O)NC2=O)cc1)c1ccccn1.O=C(O)/C=C\C(=O)O (configuration not stated) [ROSIGLITAZONE MALEATE] | Compound NOT metabolized |

# Bacterial Biotransformation (compound: CN(C)CCOC(C)(c1ccccc1)c1ccccn1.O=C(O)CCC(=O)O (configuration not stated) [DOXYLAMINE SUCCINATE] ) is Compound NOT metabolized

# Bacterial Biotransformation (compound: C=C[C@H]1CN2CC[C@H]1C[C@H]2[C@H](O)c1ccnc2ccc(OC)cc12.C=C[C@H]1CN2CC[C@H]1C[C@H]2[C@H](O)c1ccnc2ccc(OC)cc12.O.O.O=S(=O)(O)O [QUININE SULFATE] ) is Compound metabolized

# Bacterial Biotransformation (compound: CCCN1C[C@H](CSC)C[C@@H]2c3cccc4[nH]cc(c34)C[C@H]21.CS(=O)(=O)O [PERGOLIDE MESYLATE] ) is Compound NOT metabolized

# Bacterial Biotransformation (compound: COc1ccc(Cc2nccc3cc(OC)c(OC)cc23)cc1OC [PAPAVERINE] ) is Compound NOT metabolized

# Bacterial Biotransformation (compound: COc1ccc2cc([C@H](C)C(=O)O)ccc2c1 [NAPROXEN] ) is Compound metabolized

# Bacterial Biotransformation (compound: CN(C)C(=O)Oc1cccc([N+](C)(C)C)c1.[Br-] [NEOSTIGMINE BROMIDE] ) is Compound NOT metabolized

###

test: The drug is tested on Z-020 corresponding to rabbit gut metagenome with ENA study accession number: PRJEB37062 and ENA sample accession number: ERS12561819 for biotransformation under anaerobic condition. The drug concentrations were measured over 9 timepoints collected between 0 and 24 hours of incubation by liquid-chromatography-coupled mass spectrometry (LC–MS); conditions: 2 µM
test.readout: Bacterial Biotransformation

Worked examples, 5 compounds total:
| compound | test.readout | data.value |
| --- | --- | --- |
| CCN(CC)CCNC(=O)c1cc(S(C)(=O)=O)ccc1OC [TIAPRIDE] | Bacterial Biotransformation | Compound NOT metabolized |
| COc1ccccc1OCCNCC(O)COc1cccc2[nH]c3ccccc3c12 (stereo not drawn) | Bacterial Biotransformation | Compound NOT metabolized |
| C[N+]12CCC(CC1)C(OC(=O)C(O)(c1ccccc1)c1ccccc1)C2.[Br-] (stereo not drawn) [CLIDINIUM BROMIDE] | Bacterial Biotransformation | Compound NOT metabolized |
| CCc1cccc2c3c([nH]c12)C(CC)(CC(=O)O)OCC3 (stereo not drawn) | Bacterial Biotransformation | Compound NOT metabolized |
| Clc1cccc(Cl)c1N=C1NCCN1 | Bacterial Biotransformation | Compound metabolized |

# Bacterial Biotransformation (compound: `COc1ccc([C@@H]2Sc3ccccc3N(CCN(C)C)C(=O)[C@@H]2OC(C)=O)cc1` ) is Compound metabolized

# Bacterial Biotransformation (compound: COc1cc2nc(N3CCN(C(=O)C4COc5ccccc5O4)CC3)nc(N)c2cc1OC.CS(=O)(=O)O (stereo not drawn) [DOXAZOSIN MESYLATE] ) is Compound NOT metabolized

###

settings: human gut metagenome, 24 h, 2 µM
test.readout: Bacterial Biotransformation

| molecule | data.value |
| --- | --- |
| CC(C)NCC(O)COc1ccc(CC(N)=O)cc1 (centres undefined) | Compound metabolized |
| CC(=O)CCCCn1c(=O)c2c(ncn2C)n(C)c1=O | Compound metabolized |
| N#Cc1ccc2c(c1)N(CCCN1CCC(O)CC1)c1ccccc1S2 | Compound metabolized |
| COc1ccc([C@@H]2Sc3ccccc3N(CCN(C)C)C(=O)[C@@H]2OC(C)=O)cc1 | Compound metabolized |
| O=C(NC(Cc1cc(=O)[nH]c2ccccc12)C(=O)O)c1ccc(Cl)cc1 (centres undefined) [REBAMIPIDE] | Compound NOT metabolized |

# Bacterial Biotransformation (molecule: CC12CC3CC(C)(C1)CC(N)(C3)C2 [MEMANTINE] ) is Compound NOT metabolized

# Bacterial Biotransformation (molecule: `Cc1cc2c(s1)Nc1ccccc1N=C2N1CCN(C)CC1` ) is Compound NOT metabolized

# Bacterial Biotransformation (molecule: CC(C)[C@H]1CC[C@H](C(=O)N[C@H](Cc2ccccc2)C(=O)O)CC1 [NATEGLINIDE] ) is Compound metabolized

# Bacterial Biotransformation (molecule: CC(C)(C)NC[C@H](O)COc1nsnc1N1CCOCC1.O=C(O)/C=C\C(=O)O [TIMOLOL MALEATE] ) is Compound NOT metabolized

# Bacterial Biotransformation (molecule: `CN1[C@@H]2CC[C@H]1C[C@@H](OC(=O)c1c[nH]c3ccccc13)C2` ) is Compound metabolized

###

conditions: human gut metagenome, 24 h, 2 µM
test.readout: Bacterial Biotransformation

Worked examples, 10 compounds total:
| compound | test.readout | data.value |
| --- | --- | --- |
| CC(N)C12CC3CC(CC(C3)C1)C2 (stereo unspecified) [RIMANTADINE] | Bacterial Biotransformation | Compound NOT metabolized |
| CC(=O)O[C@H]1C(=O)[C@@]2(C)[C@H]([C@H](OC(=O)c3ccccc3)[C@]3(O)C[C@H](OC(=O)[C@H](O)[C@@H](NC(=O)c4ccccc4)c4ccccc4)C(C)=C1C3(C)C)[C@]1(OC(C)=O)CO[C@@H]1C[C@@H]2O [PACLITAXEL] | Bacterial Biotransformation | Compound NOT metabolized |
| CN1CCC(=C2c3ccccc3CC(=O)c3sccc32)CC1.O=C(O)/C=C/C(=O)O [KETOTIFEN FUMARATE] | Bacterial Biotransformation | Compound NOT metabolized |
| CCCCC(=O)O[C@]1(C(=O)CO)[C@@H](C)C[C@H]2[C@@H]3CCC4=CC(=O)C=C[C@]4(C)[C@@]3(F)[C@@H](O)C[C@@]21C [BETAMETHASONE VALERATE] | Bacterial Biotransformation | Compound NOT metabolized |
| CC(C)(C)NC(=O)[C@H]1CC[C@H]2[C@@H]3CC[C@H]4NC(=O)C=C[C@]4(C)[C@H]3CC[C@]12C [FINASTERIDE] | Bacterial Biotransformation | Compound metabolized |
| CCS(=O)(=O)CCn1c([N+](=O)[O-])cnc1C [TINIDAZOLE] | Bacterial Biotransformation | Compound metabolized |
| CC(=O)OCC(=O)NCCCOc1cccc(CN2CCCCC2)c1 [ROXATIDINE ACETATE] | Bacterial Biotransformation | Compound metabolized |
| CC(=O)OCC(=O)[C@@]1(OC(C)=O)[C@@H](C)C[C@H]2[C@@H]3C[C@H](F)C4=CC(=O)C=C[C@]4(C)[C@@]3(F)[C@@H](O)C[C@@]21C [DIFLORASONE DIACETATE] | Bacterial Biotransformation | Compound metabolized |
| O=C1CN2Cc3c(ccc(Cl)c3Cl)N=C2N1 [ANAGRELIDE] | Bacterial Biotransformation | Compound NOT metabolized |
| C[C@]12CCC(=O)C=C1[C@@H]1C[C@@H]1[C@H]1[C@@H]3[C@@H]4C[C@@H]4[C@@]4(CCC(=O)O4)[C@@]3(C)CC[C@@H]12 [DROSPIRENONE] | Bacterial Biotransformation | Compound NOT metabolized |

# Bacterial Biotransformation (compound: CC(=O)Nc1ccc(OC(C)=O)cc1 [DIACETAMATE] ) is Compound metabolized

# Bacterial Biotransformation (compound: O=C1CC2(CCCC2)CC(=O)N1CCCCN1CCN(c2ncccn2)CC1 [BUSPIRONE] ) is Compound NOT metabolized

# Bacterial Biotransformation (compound: CC1=C(CC(=O)O)c2cc(F)ccc2/C1=C\c1ccc([S+](C)[O-])cc1 (stereo unspecified) ) is Compound metabolized

# Bacterial Biotransformation (compound: CN1CCN2c3ccccc3Cc3ccccc3C2C1 (stereo unspecified) [MIANSERIN] ) is Compound NOT metabolized

# Bacterial Biotransformation (compound: O=P1(N(CCCl)CCCl)NCCCO1 (stereo unspecified) [CYCLOPHOSPHAMIDE ANHYDROUS] ) is Compound NOT metabolized
